system: Botrytis cinerea; experiment: In vivo preventive test on Botrytis cinerea (grey mould); settings: 500 ppm of active ingredient; gherkin plants; 4 to 5 days after contamination

compound	assay-target	units-text	Efficacy
Cc1cscc1-c1ccc(F)cc1CN(C(=O)c1c(C(F)F)nn(C)c1F)C1CC1 [I.102]	Botrytis cinerea	%	94
Cn1nc(C(F)F)c(C(=S)N(Cc2ccccc2-c2cccs2)C2CC2)c1F [I.75]	Botrytis cinerea	%	100
COc1ccsc1-c1cc(Cl)ccc1CN(C(=O)c1c(C(F)F)nn(C)c1F)C1CC1 [I.123]	Botrytis cinerea	%	100
CC(C)c1ccc(-c2ccn(C)c2)cc1CN(C(=O)c1c(C(F)F)nn(C)c1F)C1CC1 [I.50]	Botrytis cinerea	%	99
Cn1nc(C(F)F)c(C(=O)N(Cc2ccccc2-c2csc3ccccc23)C2CC2)c1F [I.156]	Botrytis cinerea	%	97
Cn1cc(-c2ccccc2CN(C(=O)c2c(C(F)F)nn(C)c2F)C2CC2)cn1 [I.54]	Botrytis cinerea	%	97
Cn1nc(C(F)F)c(C(=O)N(Cc2ccccc2-c2cccs2)C2CC2)c1Cl [I.78]	Botrytis cinerea	%	78
Cn1nc(C(F)F)c(C(=O)N(Cc2ccccc2-c2ccsc2Cl)C2CC2)c1F [I.138]	Botrytis cinerea	%	100
Cn1cc(C(=O)N(Cc2cc(Cl)ccc2-c2ccc(Cl)s2)C2CC2)c(C(F)F)c1 [I.146]	Botrytis cinerea	%	100

---

assay: log P by HPLC on a reversed-phase column (C 18), EEC Directive 79/831 Annex V.A8; assay type: physicochemical; conditions: HPLC on reversed-phase column (C 18), 40° C., 0.1% aqueous formic acid and acetonitrile, linear gradient 10% to 90% acetonitrile
This listing pairs compounds with measured logP.
attribute-measured: logP

compound	attribute-measured	numeric-value
Cc1ccc(C2(C)CO2)c(CN(C(=O)c2c(C(F)F)nn(C)c2F)C2CC2)c1 (stereo not drawn)	logP	3.04
Cc1ccc(-c2csc3ccccc23)c(CN(C(=O)c2cn(C)nc2C(F)F)C2CC2C)c1 (stereo not drawn)	logP	4.46
Cn1nc(C(F)F)c(C(=O)N(Cc2cc(-c3cccs3)ccc2Cl)C2CC2)c1Cl	logP	4.29
Cc1ccc(-c2ccn(C)c2)c(CN(C(=O)c2cn(C)nc2C(F)F)C2CC2)c1	logP	3.19
Cn1cc(C(=O)N(Cc2ccccc2-c2cccs2)C2CC2)c(C(F)F)n1	logP	3.25
Cc1ccc(-c2coc3ccccc23)c(CN(C(=O)c2cn(C)nc2C(F)F)C2CC2)c1	logP	3.89
Cc1nc(C(F)F)c(C(=O)N(Cc2cc(-c3ccsc3)ccc2Cl)C2CC2)s1	logP	4.14
Cn1nc(C(F)F)c(C(=O)N(Cc2cc(-c3cccs3)ccc2Cl)C2CC2)c1F	logP	4.06
Cc1ccc(-c2ccoc2)c(CN(C(=O)c2cn(C)nc2C(F)F)C2CC2)c1	logP	3.19
Cn1ccc(-c2ccccc2CN(C(=O)c2c(C(F)F)nn(C)c2F)C2CC2)c1	logP	3.25
Cc1ccc(C2(C)CO2)c(CN(C(=O)c2c(C(F)F)nn(C)c2F)C2CC2)c1F (stereo not drawn)	logP	3.17
Cn1nc(C(F)F)c(C(=S)N(Cc2cc(Cl)ccc2-c2cccs2)C2CC2)c1F	logP	4.69
Cn1nc(C(F)F)c(C(=O)N(Cc2cc(C34CCCC3O4)ccc2Cl)C2CC2)c1F (stereo not drawn)	logP	3.59
O=C(c1ccsc1I)N(Cc1cc(-c2ccsc2)ccc1Cl)C1CC1	logP	4.78
Cn1cc(-c2ccc(F)cc2CN(C(=O)c2c(C(F)F)nn(C)c2F)C2CC2)cn1	logP	2.50
Cn1nc(C(F)F)c(C(=S)N(Cc2cc(Cl)ccc2-c2cccs2)C2CC2)c1Cl	logP	4.92
Cn1ccc(-c2ccc(Cl)cc2CN(C(=O)c2c(C(F)F)nn(C)c2F)C2CC2)c1	logP	3.71
Cc1ccc(-c2csc3ccccc23)c(CN(C(=O)c2c(C(F)F)nn(C)c2Cl)C2CC2)c1	logP	4.83
Cn1nc(C(F)F)c(C(=O)N(Cc2cc(Cl)ccc2-c2ccoc2)C2CC2)c1F	logP	3.64
Cc1cscc1-c1ccc(C(C)C)c(CN(C(=O)c2c(C(F)F)nn(C)c2F)C2CC2)c1	logP	4.72
Cc1nc(C(F)F)c(C(=O)N(Cc2cc(-c3cccs3)ccc2Cl)C2CC2)s1	logP	4.26
Cn1nc(C(F)F)c(C(=O)N(Cc2cc(-c3ccco3)ccc2Cl)C2CC2)c1Cl	logP	4.01
Cn1cc(C(=O)N(Cc2cc(-c3ccsc3)ccc2Cl)C2CC2)c(C(F)F)c1	logP	4.06
CC(C)c1ccc(-c2ccn(C)c2)cc1CN(C(=O)c1c(C(F)F)nn(C)c1F)C1CC1	logP	3.99
Cc1ccc(-c2c(C)nn(C)c2C)c(CN(C(=O)c2c(C(F)F)nn(C)c2Cl)C2CC2)c1	logP	2.80
Cc1cscc1-c1ccccc1CN(C(=O)c1c(C(F)F)nn(C)c1F)C1CC1	logP	3.90
Cn1nc(C(F)F)c(C(=O)N(Cc2ccc(F)cc2-c2csc3ccccc23)C2CC2)c1F	logP	4.44
COc1ccsc1-c1ccc(C)cc1CN(C(=O)c1c(C(F)F)nn(C)c1F)C1CC1C (stereo not drawn)	logP	4.21
Cc1ccc(-c2ccoc2)c(CN(C(=O)c2c(C(F)F)nn(C)c2F)C2CC2)c1	logP	3.55
Cn1nc(C(F)F)c(C(=O)N(Cc2ccccc2C23CCCC2O3)C2CC2)c1F (stereo not drawn)	logP	3.12
Cn1cc(C(=O)N(Cc2cc(-c3ccco3)ccc2Cl)C2CC2)c(C(F)F)n1	logP	3.44
Cc1ccc(-c2c(C)nn(C)c2C)c(CN(C(=O)c2cn(C)nc2C(F)F)C2CC2)c1	logP	2.45
Cn1nc(C(F)F)c(C(=O)N(Cc2ccccc2-c2csc3ccccc23)C2CC2)c1F	logP	4.27
Cn1nc(C(F)F)c(C(=O)N(Cc2c(C3(C)CO3)ccc(Cl)c2F)C2CC2)c1Cl (stereo not drawn)	logP	3.37
Cn1nc(C(F)F)c(C(=S)N(Cc2ccccc2-c2ccc(Cl)s2)C2CC2)c1Cl	logP	5.19
Cn1nc(C(F)F)c(C(=O)N(Cc2cc(-c3ccsc3)ccc2Cl)C2CC2)c1Cl	logP	4.16
